Tested on: HFF
Experiment: Cytotoxicity against HFF cells assessed as reduction in cell viability after 72 hrs by CellTiter96 AQueous one solution cell proliferation assay
Format: cell-based
Conditions: Homo sapiens
PROPERTY_LABEL: IC50

query: Return the recorded IC50 value; entry: CC1=C(C)[C@H](O)[C@H]([C@](C)(O)[C@]2(O)CC[C@@]3(O)[C@@H]4C[C@H]5O[C@]56CC=CC(=O)[C@]6(C)[C@H]4CC[C@]23C)OC1=O
result: > 2000 nM

query: Return the recorded IC50 value; entry: CC1=C(C)C(=O)O[C@@H]([C@](C)(O)[C@]2(O)CC[C@@]3(O)[C@@H]4CC=C5[C@@H](O)C=CC(=O)[C@]5(C)[C@H]4CC[C@]23C)C1
result: > 2000 nM

query: Return the recorded IC50 value; entry: CC1=C(C)C(=O)O[C@@H]([C@](C)(O)[C@]2(O)CC[C@@]3(O)[C@@H]4CC=C5CC=CC(=O)[C@]5(C)[C@H]4CC[C@]23C)C1 [WITHANOLIDE F]
result: > 2000 nM

###

Collected pIC50 values appear next to each entry.
Test system: CWR22R
Test: Cytotoxicity against human 22Rv1 cells assessed as reduction in cell viability after 72 hrs by CellTiter96 AQueous one solution cell proliferation assay
Assay type: functional, cell-based
Details: 22Rv1, 72 h
Units for pIC50: none; it is -log10 of a concentration expressed in mol/L.

query: Return the recorded pIC50 value; entry: CC(=O)OC[C@]12CC[C@H]3[C@@H](C[C@H]4O[C@]45CC=CC(=O)[C@]35C)[C@]1(O)CC[C@@]2(O)[C@@](C)(O)[C@H]1CC(C)=C(C)C(=O)O1
result: 7.52

query: Return the recorded pIC50 value; entry: CC1=C(CO)C[C@H]([C@](C)(O)[C@]2(O)CC[C@@]3(O)[C@@H]4CC=C5CC=CC(=O)[C@]5(C)[C@H]4CC[C@]23C)OC1=O
result: 6.68

query: Return the recorded pIC50 value; entry: CC1=C(C)C(=O)O[C@@H]([C@](C)(O)[C@]2(O)CC[C@@]3(O)[C@@H]4[C@@H](O)C=C5C=CCC(=O)[C@]5(C)[C@H]4CC[C@]23C)C1
result: 6.00

###

Tested on: LNCaP
Assay: Cytotoxicity against human LNCAP cells assessed as reduction in cell viability after 72 hrs by CellTiter96 AQueous one solution cell proliferation assay
Format: functional, cell-based
Collected IC50 values appear next to each entry.
Value expressed in nM; do not type the unit.

COc1cccc2c1C(=O)c1c(O)c3c(c(O)c1C2=O)C[C@@](O)(C(=O)CO)C[C@@H]3O[C@H]1C[C@H](N)[C@H](O)[C@H](C)O1    20
CC1=C(C)C(=O)O[C@@H]([C@](C)(O)[C@]2(O)CC[C@@]3(O)[C@@H]4C[C@H]5O[C@]56[C@@H](O)C=CC(=O)[C@]6(C)[C@H]4CC[C@]23C)C1    160
C[C@H]1C[C@H]([C@](C)(O)[C@]2(O)CC[C@@]3(O)[C@@H]4C[C@H]5O[C@]56CC=CC(=O)[C@]6(C)[C@H]4CC[C@]23C)OC(=O)[C@@H]1C    290
CO[C@H]1C=CC(=O)[C@]2(C)[C@H]3CC[C@]4(C)[C@](O)([C@@](C)(O)[C@H]5CC(C)=C(C)C(=O)O5)CC[C@@]4(O)[C@@H]3C[C@H]3O[C@]132    330
CC1=C(C)C(=O)O[C@@H]([C@](C)(O)[C@]2(O)CC[C@@]3(O)[C@@H]4[C@@H](O)[C@H]5O[C@]56CC=CC(=O)[C@]6(C)[C@H]4CC[C@]23C)C1    330
CC1=C(CO)C[C@H]([C@](C)(O)[C@]2(O)CC[C@@]3(O)[C@@H]4CC=C5CC=CC(=O)[C@]5(C)[C@H]4CC[C@]23C)OC1=O    240

query: Return the recorded IC50 value; entry: CC1=C(C)C(=O)O[C@@H]([C@](C)(O)[C@]2(O)CC[C@@]3(O)[C@@H]4[C@@H](O)C=C5C=CCC(=O)[C@]5(C)[C@H]4CC[C@]23C)C1
result: 940

query: Return the recorded IC50 value; entry: CC1=C(C)C(=O)O[C@@H]([C@](C)(O)[C@]2(O)CC[C@@]3(O)[C@@H]4CC=C5CC=CC(=O)[C@]5(C)[C@H]4CC[C@]23C)C1 [WITHANOLIDE F]
result: 130

query: Return the recorded IC50 value; entry: CC1=C(C)C(=O)O[C@@H]([C@](C)(O)[C@]2(O)CC[C@@]3(O)[C@@H]4C[C@H]5O[C@]56CC=CC(=O)[C@]6(C)[C@H]4CC[C@]23C)C1 [WITHANOLIDE E]
result: 60

query: Return the recorded IC50 value; entry: CC1=C(C)C(=O)O[C@@H]([C@](C)(O)[C@]2(O)CC[C@@]3(O)[C@@H]4CC=C5[C@@H](O)C=CC(=O)[C@]5(C)[C@H]4CC[C@]23C)C1
result: 110

query: Return the recorded IC50 value; entry: CC1=C(C)C(=O)O[C@@H]([C@](C)(O)[C@]2(O)CC[C@@]3(O)[C@@H]4[C@@H](O)C=C5CC=CC(=O)[C@]5(C)[C@H]4CC[C@]23C)C1
result: 330
